Values from paper PMC5834492

Kindly supply the reported IC50 values for the records listed here.
Tested on: M. marinum in BV2 microglial cells
Type: cell-based, Mycobacterium marinum
Write it as a number; the unit µM goes unstated.

stdin: // fetch IC50 for O=C(c1cc2ccccc2o1)N1CCN(Cc2ccc3c(c2)OCO3)CC1 [GSK861337A] ; system: M. marinum in BV2 microglial cells
stdout: 9.31

stdin: // fetch IC50 for COc1ccccc1OCCCCn1c(C2CC2)nc2ccccc21 [GSK994258A] ; system: M. marinum in BV2 microglial cells
stdout: 8.73

stdin: // fetch IC50 for O=C(C=Cc1cccs1)N1CCN(Cc2ccc3c(c2)OCO3)CC1 [GW861072X] ; system: M. marinum in BV2 microglial cells
stdout: 7.99

stdin: // fetch IC50 for CNc1nc(SC)nc2ccccc12 [GSK353069A] ; system: M. marinum in BV2 microglial cells
stdout: 1.31

stdin: // fetch IC50 for O=C(C=Cc1cccs1)N1CCN(Cc2ccc(Br)s2)CC1 [GSK1744926A] ; system: M. marinum in BV2 microglial cells
stdout: 4.18

---

Test system: M. marinum in A. castellanii
Format: cell-based, Mycobacterium marinum
Label class 1 for high-side Intracellular infection assays: A. castellanii / M. marinum (at or above 1) and class 0 for low-side Intracellular infection assays: A. castellanii / M. marinum (below it).

stdin: Confirm if Intracellular infection assays: A. castellanii / M. marinum reported for the compound Fc1ccccc1-c1noc(N2CCN(Cc3ccc4c(c3)OCO4)CC2)n1 [GSK1434490A] is 1 or above.
stdout: class 1

stdin: Confirm if Intracellular infection assays: A. castellanii / M. marinum reported for the compound FC(F)(F)c1cc(SCc2ccccc2)nc(-c2ccccn2)n1 [GSK847913A] is 1 or above.
stdout: class 0

stdin: Confirm if Intracellular infection assays: A. castellanii / M. marinum reported for the compound CCC(Sc1nc2ccccc2o1)C(=O)Nc1nccs1 (stereo not drawn) [GSK829969A] is 1 or above.
stdout: class 1

stdin: Confirm if Intracellular infection assays: A. castellanii / M. marinum reported for the compound CN(C)S(=O)(=O)c1ccc(C(=O)Nc2nnc(-c3ccc(Cl)s3)o2)cc1 [GSK991960A] is 1 or above.
stdout: class 1

stdin: Confirm if Intracellular infection assays: A. castellanii / M. marinum reported for the compound O=C(c1[nH]nc2c1CCCC2)N1CCN(Cc2ccc3c(c2)OCO3)CC1 [SB-712970] is 1 or above.
stdout: class 1

stdin: Confirm if Intracellular infection assays: A. castellanii / M. marinum reported for the compound CN1CCN(c2cc(-c3ccc(F)cc3)nc(-c3ccncc3)n2)CC1 [GSK276001A] is 1 or above.
stdout: class 1

stdin: Confirm if Intracellular infection assays: A. castellanii / M. marinum reported for the compound Cc1cccc(-c2nc(Nc3ccncn3)c3c(C)csc3n2)n1 [GSK163574A] is 1 or above.
stdout: class 1

stdin: Confirm if Intracellular infection assays: A. castellanii / M. marinum reported for the compound COc1ccc2cc(C(=O)Nc3ccc(C4CCN(C)CC4)cc3)sc2c1 [GSK1635139A] is 1 or above.
stdout: class 1

stdin: Confirm if Intracellular infection assays: A. castellanii / M. marinum reported for the compound Cc1cc(OCC(=O)NCc2ccccc2)c2cc(Br)ccc2n1 [GSK124576A] is 1 or above.
stdout: class 1

stdin: Confirm if Intracellular infection assays: A. castellanii / M. marinum reported for the compound CC(C)(C)c1ccc(-c2nnc(SCC(=O)OC3CCCCC3)o2)cc1 [GW859039X] is 1 or above.
stdout: class 0

stdin: Confirm if Intracellular infection assays: A. castellanii / M. marinum reported for the compound Cc1cccc(-c2nc(Nc3ccncn3)c3sccc3n2)n1 [GSK153890A] is 1 or above.
stdout: class 1

stdin: Confirm if Intracellular infection assays: A. castellanii / M. marinum reported for the compound CCc1ccc(CN2CCC3(CC2)OCCc2sccc23)s1 [GSK2200160A] is 1 or above.
stdout: class 0

stdin: Confirm if Intracellular infection assays: A. castellanii / M. marinum reported for the compound O=C(NCc1ccccc1F)N1CCN(Cc2ccc(Br)s2)CC1 [GSK1758774A] is 1 or above.
stdout: class 1
